src = the NIST ThermoML archive (doi:10.1016/j.jct.2003.09.005)

conditions: 298.15 K; 101.33 kPa; Liquid
MEASURED PROPERTY: mass density (kg/m3)

CC#N : 776.69
C1CCOC1 [tetrahydrofuran] : 882.01
COCCOC : 861.43
CCOC(C)=O [ethyl acetate] : 894.51
